- System: Hepatocyte
- PROTOCOL TEXT: Inhibition of p-gp in Wistar rat primary hepatocytes assessed as inhibition of rhodamine 123 efflux at 10 uM after 3 hrs
- Format: cell-based
Activity calls are given as the source filed them. The calls are words filed in the database; no cut-off is given here.
EXPERIMENTAL ENDPOINT: inhibition

# example entries with known answers
COc1ccc(-n2nnc(CCC(O)CN3c4ccccc4Sc4ccc(N5CCOCC5)cc43)n2)cc1 (single isomer, unassigned; (-))	Active
COc1ccc(-n2nnc(CCC(O)CN3c4ccccc4[S+]([O-])c4ccc(N5CCOCC5)cc43)n2)cc1 (stereo not given)	Active
COc1ccc(-n2nnc(CCC(O)CN3c4ccccc4S(=O)(=O)c4ccc(N5CCOCC5)cc43)n2)cc1 (stereo not given)	Active
COc1ccc(-n2nnc(CCC(O)CN3c4ccccc4Sc4ccc(N5CCN(C)CC5)cc43)n2)cc1 (racemic)	Active

Now for the compound whose inhibition we want.
The recorded inhibition for COc1ccc(-n2nnc(CCC(O)CN3c4ccccc4Sc4ccccc43)n2)cc1 (stereo not given) is Active
